Target: E. coli MurA (UDP-N-acetylglucosamine 1-carboxyvinyltransferase, EC:2.5.1.7) (Escherichia coli, UniProt P0A749)
Sequence (P0A749 whole entry): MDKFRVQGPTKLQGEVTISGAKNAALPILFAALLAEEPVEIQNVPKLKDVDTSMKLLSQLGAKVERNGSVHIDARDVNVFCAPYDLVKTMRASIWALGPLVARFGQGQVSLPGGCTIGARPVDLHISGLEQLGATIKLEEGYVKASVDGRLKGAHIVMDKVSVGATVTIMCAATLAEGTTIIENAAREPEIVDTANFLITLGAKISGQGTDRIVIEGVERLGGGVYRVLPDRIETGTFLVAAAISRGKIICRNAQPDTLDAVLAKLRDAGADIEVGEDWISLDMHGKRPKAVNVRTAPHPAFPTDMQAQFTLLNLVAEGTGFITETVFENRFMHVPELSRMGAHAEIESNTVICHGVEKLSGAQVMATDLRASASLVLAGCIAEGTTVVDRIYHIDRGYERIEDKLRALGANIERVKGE
Experiment: MurA inhibitory assay (colorimetric malachite green method)
Type: biochemical
Design: inferred from IMAC purification with imidazole elution; made in house; host or cells: Escherichia coli NiCo21(DE3)
Conditions: 0.5 h, read-out: RA% @ 100 μM MurA 30 min preincubation
Procedure: Expression and purification of E. coli MurA (UDP-N-acetylglucosamine 1-carboxyvinyltransferase, EC:2.5.1.7) was performed according to the known procedure. […] The inhibition of the MurA enzyme was monitored using the colorimetric malachite green method in which orthophosphate generated during the reaction is detected. […] IC50 values were determined by measuring residual activities at 7 different compound concentrations and calculated using GraphPad Prism (GraphPad Software, San Diego, CA, USA).
Assay endpoint: remaining activity at 100 µM (%)
Quick note: give the figure in %, leave out the unit.

// known answers, use as guide
{"columns": ["Compound", "Quantity unit", "remaining activity at 100 µM"],
 "data": [
  ["C[n+]1ccsc1Br", "%", 42.8],
  ["C[n+]1ccoc1I", "%", 1.2],
  ["C[n+]1cccnc1Br [D2+]", "%", 98.2],
  ["C#Cc1nccc[n+]1C", "%", 6.7],
  ["C#Cc1cnc[n+](C)c1", "%", 77.8],
  ["Cn1cc[n+](C)c1I", "%", 10.4]
]}

// switching to the query compound
remaining activity at 100 µM recorded for this compound, C[n+]1cccnc1Cl [D1+] , is 99.1
